Target: Non-receptor tyrosine-protein kinase TYK2 (Homo sapiens)
Sequence (P29597 whole entry): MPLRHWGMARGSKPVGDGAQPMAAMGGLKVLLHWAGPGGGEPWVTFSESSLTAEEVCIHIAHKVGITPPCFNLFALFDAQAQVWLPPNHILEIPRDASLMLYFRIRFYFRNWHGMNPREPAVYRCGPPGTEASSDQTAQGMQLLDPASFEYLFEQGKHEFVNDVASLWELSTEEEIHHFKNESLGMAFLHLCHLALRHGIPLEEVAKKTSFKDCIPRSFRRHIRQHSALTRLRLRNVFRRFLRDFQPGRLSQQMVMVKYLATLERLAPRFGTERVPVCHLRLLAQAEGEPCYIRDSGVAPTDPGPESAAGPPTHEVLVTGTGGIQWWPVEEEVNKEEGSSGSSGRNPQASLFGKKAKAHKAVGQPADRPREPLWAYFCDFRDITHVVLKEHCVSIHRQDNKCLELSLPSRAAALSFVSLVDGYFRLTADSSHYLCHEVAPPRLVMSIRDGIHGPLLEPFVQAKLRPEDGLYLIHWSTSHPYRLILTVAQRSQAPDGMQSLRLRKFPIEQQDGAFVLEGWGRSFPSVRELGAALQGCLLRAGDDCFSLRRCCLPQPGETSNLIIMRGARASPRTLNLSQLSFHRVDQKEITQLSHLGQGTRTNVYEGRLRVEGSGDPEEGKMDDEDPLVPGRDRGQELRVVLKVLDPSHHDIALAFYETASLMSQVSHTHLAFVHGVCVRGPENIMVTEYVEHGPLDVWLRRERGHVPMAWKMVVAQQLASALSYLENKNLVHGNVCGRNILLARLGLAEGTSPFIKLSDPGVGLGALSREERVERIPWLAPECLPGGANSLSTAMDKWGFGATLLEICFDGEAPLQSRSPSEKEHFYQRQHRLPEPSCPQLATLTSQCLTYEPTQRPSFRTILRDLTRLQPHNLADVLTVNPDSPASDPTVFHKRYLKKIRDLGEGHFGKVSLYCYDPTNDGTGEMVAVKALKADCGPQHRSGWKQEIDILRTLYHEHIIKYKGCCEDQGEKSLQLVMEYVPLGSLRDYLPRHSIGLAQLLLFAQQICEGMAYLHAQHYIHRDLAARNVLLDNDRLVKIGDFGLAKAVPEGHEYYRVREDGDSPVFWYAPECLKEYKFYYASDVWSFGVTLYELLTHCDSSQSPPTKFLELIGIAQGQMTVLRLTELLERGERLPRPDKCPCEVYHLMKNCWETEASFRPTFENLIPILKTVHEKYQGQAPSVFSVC
MEASUREMENT LABEL: IC50 (µM)

CC(C)(O)C(=O)N1CCN(c2ccc(C(F)(F)F)c(C3=C(c4c[nH]c5ccccc45)C(=O)NC3=O)c2)CC1 ... 8.05
